target: Albumin (Homo sapiens); assay: Binding affinity to fatty acid complexed human serum albumin; format: ADME; conditions: isolated protein
Sequence (P02768 whole entry): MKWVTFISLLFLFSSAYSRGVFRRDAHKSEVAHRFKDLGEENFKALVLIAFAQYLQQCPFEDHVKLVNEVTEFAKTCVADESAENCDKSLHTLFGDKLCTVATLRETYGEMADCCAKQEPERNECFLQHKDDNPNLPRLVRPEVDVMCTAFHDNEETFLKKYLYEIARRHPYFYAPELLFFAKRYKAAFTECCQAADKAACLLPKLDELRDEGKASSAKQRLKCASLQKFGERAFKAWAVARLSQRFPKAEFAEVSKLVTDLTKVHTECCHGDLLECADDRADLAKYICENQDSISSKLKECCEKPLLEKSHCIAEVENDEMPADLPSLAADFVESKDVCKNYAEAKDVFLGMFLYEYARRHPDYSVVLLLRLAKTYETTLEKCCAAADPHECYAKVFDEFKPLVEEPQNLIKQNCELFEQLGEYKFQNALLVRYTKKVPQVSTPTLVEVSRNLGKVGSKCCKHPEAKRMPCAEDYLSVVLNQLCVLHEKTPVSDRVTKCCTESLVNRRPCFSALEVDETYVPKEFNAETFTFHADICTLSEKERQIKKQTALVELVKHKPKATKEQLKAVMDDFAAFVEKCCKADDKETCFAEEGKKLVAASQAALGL
I'd appreciate it if you could supply Activity values for the items below.
Respond with the bare value in %.

[in] Request: Activity, test system Albumin (Homo sapiens), entry Cc1cn([C@H]2C[C@H](N=[N+]=[N-])[C@@H](COC(=O)C(=O)N[C@H](C(=O)O)C(C)C)O2)c(=O)[nH]c1=O
[out] 11.9

[in] Quick one: Cc1cn([C@H]2C[C@H](N=[N+]=[N-])[C@@H](COC(=O)C(=O)N[C@@H](Cc3c[nH]c4ccccc34)C(=O)O)O2)c(=O)[nH]c1=O
[out] 23.7

[in] Then this molecule: Cc1cn([C@H]2C[C@H](N=[N+]=[N-])[C@@H](COC(=O)c3ccncc3)O2)c(=O)[nH]c1=O
[out] 38.8

[in] Can you check Cc1cn([C@H]2C[C@H](N=[N+]=[N-])[C@@H](COC(=O)C(=O)N3CCC[C@H]3C(=O)O)O2)c(=O)[nH]c1=O next?
[out] 16.1

The reported measurements were obtained from ChEMBL document CHEMBL1143998.
